Reported inhibition values for the following molecules.
# target: Nuclear receptor coactivator 1 (Homo sapiens) (UniProt Q15788)
# Sequence (Q15788 whole entry, looked up): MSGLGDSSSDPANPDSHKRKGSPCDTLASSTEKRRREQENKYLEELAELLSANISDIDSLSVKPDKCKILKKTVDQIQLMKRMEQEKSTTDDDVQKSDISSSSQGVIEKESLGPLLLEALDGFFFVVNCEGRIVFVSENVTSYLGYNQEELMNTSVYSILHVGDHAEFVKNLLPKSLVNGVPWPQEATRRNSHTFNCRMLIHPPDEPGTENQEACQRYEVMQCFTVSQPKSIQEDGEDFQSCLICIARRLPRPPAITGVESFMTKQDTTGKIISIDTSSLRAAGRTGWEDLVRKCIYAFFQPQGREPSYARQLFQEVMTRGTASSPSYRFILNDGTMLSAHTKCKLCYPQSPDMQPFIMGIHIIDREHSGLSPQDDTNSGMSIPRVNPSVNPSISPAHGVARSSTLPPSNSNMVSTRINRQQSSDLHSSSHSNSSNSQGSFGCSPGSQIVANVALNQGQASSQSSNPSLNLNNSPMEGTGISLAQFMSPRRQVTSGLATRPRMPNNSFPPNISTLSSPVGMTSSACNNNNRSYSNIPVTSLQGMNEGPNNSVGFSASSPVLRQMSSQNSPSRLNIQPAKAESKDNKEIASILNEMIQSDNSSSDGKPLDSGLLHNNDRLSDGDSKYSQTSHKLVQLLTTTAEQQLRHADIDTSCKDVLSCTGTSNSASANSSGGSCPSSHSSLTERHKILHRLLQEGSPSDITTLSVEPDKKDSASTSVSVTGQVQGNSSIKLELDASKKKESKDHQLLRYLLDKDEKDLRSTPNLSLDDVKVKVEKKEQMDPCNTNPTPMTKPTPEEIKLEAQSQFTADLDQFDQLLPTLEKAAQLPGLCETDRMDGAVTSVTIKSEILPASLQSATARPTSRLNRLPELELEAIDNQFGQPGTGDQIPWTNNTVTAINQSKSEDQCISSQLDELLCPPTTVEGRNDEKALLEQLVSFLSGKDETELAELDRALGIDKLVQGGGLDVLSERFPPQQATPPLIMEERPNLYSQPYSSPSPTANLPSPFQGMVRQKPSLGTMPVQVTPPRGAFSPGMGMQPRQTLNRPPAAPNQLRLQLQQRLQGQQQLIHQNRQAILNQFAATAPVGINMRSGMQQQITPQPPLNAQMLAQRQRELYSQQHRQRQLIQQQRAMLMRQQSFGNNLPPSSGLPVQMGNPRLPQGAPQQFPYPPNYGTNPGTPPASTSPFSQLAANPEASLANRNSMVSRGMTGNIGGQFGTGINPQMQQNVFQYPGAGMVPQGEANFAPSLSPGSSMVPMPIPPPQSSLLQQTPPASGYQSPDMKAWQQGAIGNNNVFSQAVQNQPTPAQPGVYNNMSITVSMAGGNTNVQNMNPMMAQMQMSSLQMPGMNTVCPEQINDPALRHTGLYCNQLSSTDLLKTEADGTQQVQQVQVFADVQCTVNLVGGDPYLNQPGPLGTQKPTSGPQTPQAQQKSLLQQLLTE
# test: SRC1 coactivator transcriptional activity inhibitors, confirmation, cell-based, luminescence, quadruplicate (AID 588820);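 further: 0% = DMSO wells and 100% = gossypol 36 µM treated wells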
# settings: HEK293 GAL4-SRC1 luciferase reporter, at 3.6 µM, hits give high values
Activity calls are given as the source filed them.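 How the source made its calls: active means mean inhibition above 46.68%, the untreated control wells mean plus 3 SD; inactive means the rest.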
property.label: inhibition

| molecule | endpoint.value |
| --- | --- |
| CNc1cncc(-c2ccc(NS(C)(=O)=O)cc2)n1 | 20.8% (inactive) |
| CCCn1c(C)cc(C(=O)CN2C(=O)c3ccccc3S2(=O)=O)c1C | 45.7% (inactive) |
| O=C(Nc1nc(-c2ccc(F)c(F)c2)cs1)c1ccc(OCC2CCCO2)cc1 (stereo not given) | 5.41% (inactive) |
| N=c1c2c(-c3ccccc3)c(-c3ccccc3)n(Cc3ccco3)c2ncn1CCCn1ccnc1 | 43.8% (inactive) |
| O=C(CCSc1nc2ccccc2s1)N/N=C/c1c(O)ccc2ccccc12 | 36% (inactive) |

----------
# test: VP16 transactivation inhibitors, counter-screen for SRC1 inhibitor project, cell-based, luminescence, high throughput (AID 588824)
# settings: cell-based VP16 transactivation luciferase luminescence; at 3.6 µM
Activity calls are given as the source filed them. Cut-off read from the data, not from the text of the source: active = inhibition above about 25%; inactive = the rest.
Labels: active, inactive

| compound | discrete.label |
| --- | --- |
| C=C1C(=O)C2=CC1CCC(=O)C1(C)CCC(OC(C)=O)C(C)(C)C1CC2O (centres undefined) | active |
| Nc1nc(N)c2c(ccc3nccc32)[nH]1 | inactive |
| CCN(CC)CCn1c2ccccc2c2cnc(N)c(C#N)c21 | active |
| CCOc1cc(C(=S)N2CCCCC2)ccc1OCC(=O)NCc1ccccc1 | inactive |
| CCN1CCN(c2ccc(S(=O)(=O)N3CCOCC3)cc2NC(=O)c2cc(Cl)nc3ccccc23)CC1 | inactive |
| CC(C)(C)C(=O)NC(=S)NNC(=O)c1sc2ccccc2c1Cl | inactive |
| CCC(=O)Nc1cc2nn(-c3ccc(C)cc3)nc2cc1C | inactive |
| CC(=O)OC1CC2C(C)(C)C(=O)C=CC2(C)C2CCC3(C)C(c4ccoc4)OC(=O)C4OC43C12C (centres undefined) | active |
| COc1cc(C(=O)NC(=S)NNC(=O)c2cnccn2)cc(OC)c1OC | inactive |
| O=c1c2ccccc2cnn1-c1nc2ccccc2[nH]1 | active |
| CCCCN1C=CC(=C2C(=O)c3ccccc3C2=O)C=C1 | inactive |
| O=C(CN1CCN(Cc2ccc(Cl)cc2)C1=O)NCCCN1CCOCC1 | inactive |
| COc1ccc(OC)c(/C=C/c2ccnc3ccccc23)c1 | active |
| CCOc1ccc(-c2cc(C(=O)Nc3ccc(C)c(NS(C)(=O)=O)c3)[nH]n2)c(C)c1 | inactive |
| Cn1ncc(Cl)c1C(=O)NCc1cc(C(C)(C)C)n[nH]1 | inactive |
| O=C(N/N=C\c1c(O)ccc2ccccc12)c1cncc(Br)c1 | active |
| O=C1/C(=N\S(=O)(=O)c2cccs2)C([n+]2ccccc2)=C([O-])c2ccccc21 | inactive |
| CC1Sc2n(c3ccccc3[n+]2C)N=C1c1ccccc1 (centres undefined) | inactive |
| CN(C)C(=O)c1ccc(-c2n[nH]c(=O)c3ccccc23)cc1 | inactive |
| COc1cc2c(cc1OC)C(C)N(C(=O)c1cc3ccccc3o1)CC2 (centres undefined) | inactive |
| Cc1ccc(C(=O)O/N=C(\N)c2ccccn2)c(C)c1 | active |
| S=c1[nH]nc(C2CCCCC2)n1/N=C/c1ccncc1 | active |
| O=C(C=P(c1ccccc1)(c1ccccc1)c1ccccc1)c1ccccc1-c1ccccc1C(=O)C=P(c1ccccc1)(c1ccccc1)c1ccccc1 | active |
| C=CC[n+]1c(-c2ccc(C)cc2)csc1Nc1ccc(NC(C)=O)cc1 | inactive |
| COc1cc(/C=C/C(=O)Nc2ccc3nc4n(c(=O)c3c2)CCCC4)cc(OC)c1OC | inactive |
| N=c1c(C(=O)NCCc2ccccc2)cc2c(=O)n3ccccc3nc2n1CCCN1CCOCC1 | inactive |
| CN(C)c1ccc(/C=C/c2nc3ccccc3s2)cc1 | inactive |
| CCOCCOC(=O)c1[nH]c2c(c1C)C(=O)CC(c1cc(OC)c(OC)c(OC)c1)C2 (centres undefined) | inactive |
| COc1ccc(C2=Nn3c(nnc3-c3ccncc3)SC2)cc1 | active |
| COc1cccc(/C=N\NC(=O)c2ccc(Cn3cc(Br)c([N+](=O)[O-])n3)o2)c1O | active |
| O=C(NCCC(=O)N1CCCC(C(F)(F)F)C1)c1ccc(Br)cc1 (centres undefined) | inactive |
| CN(C)CCN1C(=O)c2cccc3cc([N+](=O)[O-])cc(c23)C1=O | active |
| Cc1cc(C)c(C#N)c(SCc2nnc(-c3ccccc3)o2)n1 | active |
| CC(C)(C)NCC(=Cc1ccccc1)C(=O)c1ccccc1 | active |
| COc1cc(Cn2c3ccc(NC(=O)CCc4ccc(O)cc4)cc3c(=O)n2C)ccc1F | active |
| COc1cc(OC)cc(-c2cc3nc(C)c(CCC(=O)O)c(C)n3n2)c1 | active |
| CCN(CC)c1ccc(/C=C/c2ccc3ccc(OC)cc3[n+]2CC)cc1 | active |
| O=C(N/N=C/c1ccccc1O)c1cccc(C(F)(F)F)c1 | active |
| COc1ccc(-c2[nH]ncc2CN2CCC(O)(c3ccc(Cl)cc3)CC2)cc1 | inactive |
| CCOc1cc(C(N)=O)cc(Br)c1OCC | inactive |
| Brc1ccc2ncnc(Nc3ccc(N4CCOCC4)cc3)c2c1 | active |
| COc1ccc(-c2nc(-c3ccccn3)no2)cc1 | active |
| CC(=O)Nc1nc(-c2ccc3c(c2)CC(C)N3C(=O)C2CC2)c(C)s1 (centres undefined) | active |
| c1cc2c(cn1)cnc1cscc12 | inactive |

Every entry's value here was drawn from PubChem BioAssay.
